Attribution: PubChem BioAssay AID1159580

- procedureSummary: chemical genetic growth profiling, strain panel (AID 1159580);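 further: tested at 20 µM; growth read once vehicle control cultures reached saturation at 30 °C; 1 = growth at the plate median or of vehicle wells; lower values mean less growth of the strain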
- particulars: S. cerevisiae deletion strains, growth OD, locus YMR125W, strain sto1
In all, about 5,500 compounds went through this assay and about 2,000 (36%) were called active. Inconclusive results (about 18%) are left out. No stated cut-off is given here; in the data, active means normalized growth mostly below about 0.91 (no sharp cut-off); inconclusive means no clear call, values can overlap the other calls; inactive means mostly above about 0.92. This is one part of the list.
Just give me one of these, please: yes (1) = active, no (0) = inactive

Study these solved cases before continuing.
compound=NC(=O)c1cccnc1 cat="no (0)"
compound="CC(=O)O[C@@H]1C=C[C@@]2(C)C(C[C@@H](OC(C)=O)[C@@]3(C)C4=CC(=O)O[C@@H](c5ccoc5)[C@]4(C)CCC23)C1(C)C (some centres undefined)" cat="no (0)"
compound=CN(C)CCCN1c2ccccc2Sc2ccc(C(F)(F)F)cc21 cat="no (0)"
compound=Cc1cn[nH]c1 cat="no (0)"

## Input # fetch the recorded call for N=C(N)N here
## Output no (0)

## Input Recorded call for CCC(C)C(=O)OC1[C@@H]2CC3=C4CC(=O)O[C@@H](c5ccoc5)[C@]4(C)CCC3[C@@](C)(C2=O)[C@@H](CC(=O)OC)C1(C)C (some centres undefined) ?
## Output no (0)

## Input Hi, sorry to bother you, what did the test record for C[C@H]1c2cccc(O)c2C(O)=C2C(=O)[C@]3(O)C(O)=C(C(N)=O)C(=O)[C@@H](N(C)C)[C@@H]3[C@@H](O)[C@@H]21 ?
## Output no (0)

## Input Dear colleague, could you share the recorded outcome for CNCCCC12CCC(c3ccccc31)c1ccccc12 when you have a moment?
## Output no (0)

## Input Test call, this compound: CC(=O)O[C@H]1CCC2(C)C3=C(CCC2C1(C)C)[C@@]1(C)CC[C@@H](C(C)CCC=C(C)C)[C@]1(C)CC3 (some centres undefined)
## Output no (0)
